Test system: RVH-421 (Melanoma)
test_method_notes: Bliss excess, mean over the matrix (fraction); higher = more synergy
test_readout: Bliss excess

Known results for compounds:
INSERT INTO assay_data (compound, test_readout, result) VALUES
  ('Cc1cc2ncnn2cc1Nc1ncc2c(n1)n(C1CCOCC1)c(=O)n2C [AZD7648] + C[C@@H]1COCCN1C2=NC(=NC(=C2)C3(CC3)[S@](=N)(=O)C)C4=C5C=CNC5=NC=C4 [AZD6738] (first compound max 10 µM, 7x7, partner max 10 µM)', 'Bliss excess', 0.0381),
  ('CN(C)CCCOc1ccc(-c2ccc3ncc4c(c3c2)n(C2CCOCC2)c(=O)n4C)cn1 [AZD0156] + C[C@@H]1COCCN1C2=NC(=NC(=C2)C3(CC3)[S@](=N)(=O)C)C4=C5C=CNC5=NC=C4 [AZD6738] (first compound max 1 µM, 7x7, partner max 10 µM)', 'Bliss excess', -0.0581),
  ('Cc1c2c(nn1C)CSCc1cc(n(C)n1)CSc1cc(c3ccccc3c1)OCCCc1c(C(=O)O)n(C)c3c-2c(Cl)ccc13 [AZD5991] + C=CCn1c(=O)c2cnc(Nc3ccc(N4CCN(C)CC4)cc3)nc2n1-c1cccc(C(C)(C)O)n1 [AZD1775] (first compound max 1 µM, partner max 1 µM)', 'Bliss excess', 0.0088);

So, COc1cccc(OCCCN)c1-c1cc(Nc2cnc(C#N)cn2)n[nH]1 [Prexasertib] + C[C@@H]1COCCN1C2=NC(=NC(=C2)C3(CC3)[S@](=N)(=O)C)C4=C5C=CNC5=NC=C4 [AZD6738] (first compound max 1 µM, 7x7, partner max 10 µM) ? Its Bliss excess was -0.0225

So, COc1cccc2c1C(=O)c1c(O)c3c(c(O)c1C2=O)C[C@@](O)(C(=O)CO)C[C@@H]3O[C@H]1C[C@H](N)[C@H](O)[C@H](C)O1 [Doxorubicin] + Cc1cc2ncnn2cc1Nc1ncc2c(n1)n(C1CCOCC1)c(=O)n2C [AZD7648] (first compound max 1 µM, 7x7, partner max 10 µM) ? Its Bliss excess was 0.0105

* * *

System: SUP-HD1 (Hodgkin's Lymphoma)
test_method_notes: combination Emax (second highest fraction inhibited in the dose matrix, 72 h); higher = more inhibition; extreme values may be limits of the assay
test_readout: combination Emax
Please respond with just the number, no unit label.

Known results for compounds:
INSERT INTO assay_data (compound, measured_number) VALUES
  ('CN(C)CCCOc1ccc(-c2ccc3ncc4c(c3c2)n(C2CCOCC2)c(=O)n4C)cn1 [AZD0156] + CCN(CCO)CCCOc1ccc2c(Nc3cc(CC(=O)Nc4cccc(F)c4)[nH]n3)ncnc2c1 [AZD2811] (first compound max 1 µM, 7x7, partner max 1 µM)', 0.48),
  ('CC1(C)CCC(CN2CCN(c3ccc(C(=O)NS(=O)(=O)c4ccc(NCC5CCOCC5)c([N+](=O)[O-])c4)c(Oc4cnc5[nH]ccc5c4)c3)CC2)=C(c2ccc(Cl)cc2)C1 [Venetoclax] + Cn1cnc2c(F)c(Nc3ccc(Br)cc3Cl)c(C(=O)NOCCO)cc21 [Selumetinib] (first compound max 1 µM, 7x7, partner max 3 µM)', 0.809);

Shifting focus to the compound that follows.
So, CCN(CCO)CCCOc1ccc2c(Nc3cc(CC(=O)Nc4cccc(F)c4)[nH]n3)ncnc2c1 [AZD2811] + C[C@@H]1COCCN1C2=NC(=NC(=C2)C3(CC3)[S@](=N)(=O)C)C4=C5C=CNC5=NC=C4 [AZD6738] (first compound max 1 µM, 7x7, partner max 10 µM) ? Its combination Emax was 0.781

* * *

Tested on: SK-N-DZ (Neuroblastoma)
test_method_notes: Bliss excess, mean over the matrix (fraction); higher = more synergy
test_readout: Bliss excess
Please respond with just the number, no unit label.

Known results for compounds:
INSERT INTO assay_data (compound, measured_number) VALUES
  ('COc1cc2c(cc1OCCCCCOc1cc3c(cc1OC)C(=O)N1C=C(C)C[C@H]1C=N3)N=C[C@@H]1CC(C)=CN1C2=O [SG3199] + O=C(c1cc(Cc2n[nH]c(=O)c3ccccc23)ccc1F)N1CCN(C(=O)C2CC2)CC1 [Olaparib] (first compound max 0.001 µM, 7x7, partner max 10 µM)', -0.0199),
  ('NC1(C(=O)N[C@@H](CCO)c2ccc(Cl)cc2)CCN(c2ncnc3[nH]ccc23)CC1 [Capivasertib] + CC(=O)c1c(C)c2cnc(Nc3ccc(N4CCNCC4)cn3)nc2n(C2CCCC2)c1=O [Palbociclib] (first compound max 10 µM, 7x7, partner max 10 µM)', 0.0628),
  ('CC(=O)Nc1cccc(-n2c(=O)n(C3CC3)c(=O)c3c(Nc4ccc(I)cc4F)n(C)c(=O)c(C)c32)c1 [Trametinib] + Cc1nc(-c2cn3c(n2)-c2ccc(-c4cnn(C(C)(C)C(N)=O)c4)cc2OCC3)n(C(C)C)n1 [Taselisib] (first compound max 1 µM, 7x7, partner max 10 µM)', 0.0954);

So, Cc1cc2ncnn2cc1Nc1ncc2c(n1)n(C1CCOCC1)c(=O)n2C [AZD7648] + C=CCn1c(=O)c2cnc(Nc3ccc(N4CCN(C)CC4)cc3)nc2n1-c1cccc(C(C)(C)O)n1 [AZD1775] (first compound max 10 µM, partner max 1 µM) ? Its Bliss excess was 0.0207

* * *

Test system: SBC-5 (Small Cell Lung Carcinoma)
test_method_notes: Bliss excess, mean over the matrix (fraction); higher = more synergy
test_readout: Bliss excess
Please respond with just the number, no unit label.

So, CC1(C)CCC(CN2CCN(c3ccc(C(=O)NS(=O)(=O)c4ccc(NCC5CCOCC5)c([N+](=O)[O-])c4)c(Oc4cnc5[nH]ccc5c4)c3)CC2)=C(c2ccc(Cl)cc2)C1 [Venetoclax] + C=CCn1c(=O)c2cnc(Nc3ccc(N4CCN(C)CC4)cc3)nc2n1-c1cccc(C(C)(C)O)n1 [AZD1775] (first compound max 1 µM, partner max 1 µM) ? Its Bliss excess was -0.0709

So, Cc1nc(Nc2ncc(C(=O)Nc3c(C)cccc3Cl)s2)cc(N2CCN(CCO)CC2)n1 [Dasatinib] + CC(=O)Nc1cccc(-n2c(=O)n(C3CC3)c(=O)c3c(Nc4ccc(I)cc4F)n(C)c(=O)c(C)c32)c1 [Trametinib] (first compound max 2 µM, 7x7, partner max 1 µM) ? Its Bliss excess was 0.025

So, CN(CCO)CC[C@H](CSc1ccccc1)Nc1ccc(S(=O)(=O)NC(=O)c2ccc(N3CCC([C@@H](O)c4ccccc4-c4ccc(Cl)cc4)CC3)cc2)cc1S(=O)(=O)C(F)(F)F [AZD4320] + Cc1cc2ncnn2cc1Nc1ncc2c(n1)n(C1CCOCC1)c(=O)n2C [AZD7648] (first compound max 1 µM, 7x7, partner max 10 µM) ? Its Bliss excess was -0.032

* * *

Tested on: HT-144 (Melanoma)
test_method_notes: Bliss excess, mean over the matrix (fraction); higher = more synergy
test_readout: Bliss excess
Please respond with just the number, no unit label.

Known results for molecules:
INSERT INTO assay_data (molecule, system, measured_number) VALUES
  ('COc1cccc(OCCCN)c1-c1cc(Nc2cnc(C#N)cn2)n[nH]1 [Prexasertib] + O=C(c1cc(Cc2n[nH]c(=O)c3ccccc23)ccc1F)N1CCN(C(=O)C2CC2)CC1 [Olaparib] (first compound max 1 µM, 7x7, partner max 10 µM)', 'HT-144 (Melanoma)', -0.0264),
  ('COc1cccc(OCCCN)c1-c1cc(Nc2cnc(C#N)cn2)n[nH]1 [Prexasertib] + C=CCn1c(=O)c2cnc(Nc3ccc(N4CCN(C)CC4)cc3)nc2n1-c1cccc(C(C)(C)O)n1 [AZD1775] (first compound max 1 µM, partner max 1 µM)', 'HT-144 (Melanoma)', 0.0666),
  ('NC1(C(=O)N[C@@H](CCO)c2ccc(Cl)cc2)CCN(c2ncnc3[nH]ccc23)CC1 [Capivasertib] + CCN(CCO)CCCOc1ccc2c(Nc3cc(CC(=O)Nc4cccc(F)c4)[nH]n3)ncnc2c1 [AZD2811] (first compound max 10 µM, 7x7, partner max 1 µM)', 'HT-144 (Melanoma)', -0.0195),
  ('COc1nnc2ccc(N3CCC(c4ccc(OCCN5CCN(C)C(=O)[C@H]5C)cc4)CC3)nn12 [AZD5153] + CN(CC[C@H](CSC1=CC=CC=C1)NC2=C(C=C(C=C2)S(=O)(=O)NC(=O)C3=CC=C(C=C3)N4CCC(CC4)[C@H](C5=CC=CC=C5C6=CC=C(C=C6)Cl)O)S(=O)(=O)C(F)(F)F)CCO [AZD4320] (first compound max 1 µM, 7x7, partner max 1 µM)', 'HT-144 (Melanoma)', 0.0439),
  ('CCN(CCO)CCCOc1ccc2c(Nc3cc(CC(=O)Nc4cccc(F)c4)[nH]n3)ncnc2c1 [AZD2811] + C=CCn1c(=O)c2cnc(Nc3ccc(N4CCN(C)CC4)cc3)nc2n1-c1cccc(C(C)(C)O)n1 [AZD1775] (first compound max 1 µM, partner max 1 µM)', 'HT-144 (Melanoma)', 0.0516);

So, CN(C)CCCOc1ccc(-c2ccc3ncc4c(c3c2)n(C2CCOCC2)c(=O)n4C)cn1 [AZD0156] + O=C(c1cc(Cc2n[nH]c(=O)c3ccccc23)ccc1F)N1CCN(C(=O)C2CC2)CC1 [Olaparib] (first compound max 3 µM, partner max 3 µM) ? Its Bliss excess was 0.0767

So, Cc1c2c(nn1C)CSCc1cc(n(C)n1)CSc1cc(c3ccccc3c1)OCCCc1c(C(=O)O)n(C)c3c-2c(Cl)ccc13 [AZD5991] + Cn1cnc2c(F)c(Nc3ccc(Br)cc3Cl)c(C(=O)NOCCO)cc21 [Selumetinib] (first compound max 1 µM, 7x7, partner max 3 µM) ? Its Bliss excess was 0.01
